# Subject of test: Lethal(3)malignant brain tumor-like protein 3 (Homo sapiens, UniProt Q96JM7)
# Sequence (Q96JM7 whole entry): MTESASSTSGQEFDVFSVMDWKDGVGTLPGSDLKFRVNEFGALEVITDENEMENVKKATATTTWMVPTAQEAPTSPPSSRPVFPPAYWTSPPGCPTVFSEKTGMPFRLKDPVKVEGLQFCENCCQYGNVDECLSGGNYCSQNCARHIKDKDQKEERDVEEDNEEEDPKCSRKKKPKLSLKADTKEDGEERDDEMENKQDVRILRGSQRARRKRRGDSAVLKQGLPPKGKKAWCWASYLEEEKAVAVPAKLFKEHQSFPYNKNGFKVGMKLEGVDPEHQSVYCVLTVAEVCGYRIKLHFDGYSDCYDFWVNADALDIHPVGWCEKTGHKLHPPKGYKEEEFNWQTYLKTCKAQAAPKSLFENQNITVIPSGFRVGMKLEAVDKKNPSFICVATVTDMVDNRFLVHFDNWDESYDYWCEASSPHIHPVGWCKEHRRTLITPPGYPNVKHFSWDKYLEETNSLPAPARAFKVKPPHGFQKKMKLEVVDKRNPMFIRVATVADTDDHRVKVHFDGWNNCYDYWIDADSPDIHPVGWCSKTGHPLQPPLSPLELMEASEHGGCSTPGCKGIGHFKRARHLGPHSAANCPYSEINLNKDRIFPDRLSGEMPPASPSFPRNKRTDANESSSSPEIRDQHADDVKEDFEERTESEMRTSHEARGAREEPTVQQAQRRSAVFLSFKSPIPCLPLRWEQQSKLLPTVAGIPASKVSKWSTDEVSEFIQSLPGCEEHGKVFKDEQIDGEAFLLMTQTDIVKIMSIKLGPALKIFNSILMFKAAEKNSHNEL
# Measurement notes: Binding affinity to L3MBTL3 (unknown origin) by isothermal titration calorimetric analysis
Measurement name: Kd (nM)
Give bare numbers, in nM.

As a guide, the following entries are already answered.
                               structure  experimental_value
0  c1cc(N2CCC(N3CCCC3)CC2)ccc1CCCN1CCCC1                1800
1            c1ccc(N2CCC(N3CCCC3)CC2)cc1               44000

Provide each entry's Kd from the list below.
1. OCC1(CO)CN(CCc2ccc(N3CCC(N4CCCC4)CC3)cc2)C1
2. c1cc(N2CCC(N3CCCC3)CC2)ccc1CN1CCCC1
3. c1cc(N2CCC(N3CCCC3)CC2)ccc1CCN1CCCCC1
4. c1cc(N2CCC(N3CCCC3)CC2)ccc1CCN1CCCC1

Reply |
400
1400
610
370
